target: human TASK-1 (Homo sapiens (Human)); experiment: Two-electrode voltage clamp of human TASK-1 channels expressed in Xenopus laevis oocytes; assay type: cell-based
Sequence (O14649 whole entry): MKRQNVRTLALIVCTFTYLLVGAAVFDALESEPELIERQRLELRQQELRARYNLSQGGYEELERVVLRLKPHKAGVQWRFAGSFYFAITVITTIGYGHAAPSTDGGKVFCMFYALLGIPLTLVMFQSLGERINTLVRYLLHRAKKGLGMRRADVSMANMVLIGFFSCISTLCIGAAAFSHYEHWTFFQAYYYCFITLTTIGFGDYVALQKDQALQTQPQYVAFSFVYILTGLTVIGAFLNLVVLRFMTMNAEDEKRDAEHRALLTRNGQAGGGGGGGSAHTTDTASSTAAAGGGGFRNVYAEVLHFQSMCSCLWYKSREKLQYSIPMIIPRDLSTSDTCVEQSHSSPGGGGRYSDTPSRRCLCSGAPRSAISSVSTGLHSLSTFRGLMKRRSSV
endpoint_name: IC50 (µM)

# example entries with known answers
molecule	target_desc	IC50 / µM
COc1cccc(C(=O)N2CC3CN(Cc4c(-c5ccc(Cl)cc5)nc5ccccn45)CC3C2)n1 (centres unmarked) [Example 4]	human TASK-1 (Homo sapiens (Human))	0.0599
COc1cccc(C(=O)N2CC3CN(Cc4c(-c5ccc(Br)cc5)nc5ccccn45)CC3C2)c1 (centres unmarked) [Example 10]	human TASK-1 (Homo sapiens (Human))	0.0312

P: COc1cccc(C(=O)N2CC3CN(Cc4c(-c5ccc(Cl)cc5)nc5ccccn45)CC3C2)c1 (centres unmarked) [Example 17]
Q: COc1cccc(C(=O)N2CC3CN(Cc4c(-c5ccc(C(C)C)cc5)nc5ccccn45)CC3C2)n1 (centres unmarked) [Example 25]
Query block: In the pair P and Q , the larger recorded IC50 belongs to which? # answer = label of selected item
Result block: Q
